Cited source for all entries: the supplement of paper PMC8882468

Tested on: HCI-002 (organoid from a triple-negative breast cancer xenograft)
Test: CTG-3D luminescence at 96 h relative to day-0 seeding control (ratio to day 0); higher = more growth / less cytotoxicity; PDxO 3D drug screen, 96 h, CTG-3D normalised to day-0 seeding control.
Settings: 10 µM; days in culture: 62
measure name: CTG-3D luminescence at 96 h
Could you keep your reply to the number by itself?

CC(C)n1nc(-c2ccc3oc(N)nc3c2)c2c(N)ncnc21 [sapanisertib]
0.418
CS(=O)(=O)c1ccc(C(=O)Nc2ccc(Cl)c(-c3ccccn3)c2)c(Cl)c1 [vismodegib]
2.96

Identify measured CTG-3D luminescence at 96 h corresponding to O=C(c1ccc(F)c(F)c1Nc1ccc(I)cc1F)N1CC(O)([C@@H]2CCCCN2)C1 [cobimetinib] 0.777

----------
System: MDA-MB-231
Test: CTG-3D luminescence at 96 h relative to day-0 seeding control (ratio to day 0); higher = more growth / less cytotoxicity; PDxO 3D drug screen, 96 h, CTG-3D normalised to day-0 seeding control.
Conditions: 625 fM
measure name: CTG-3D luminescence at 96 h
Could you keep your reply to the number by itself?

Identify measured CTG-3D luminescence at 96 h corresponding to C[C@]12CC[C@@H]3c4ccc(O)cc4C[C@@H](CCCCCCCCC[S+]([O-])CCCC(F)(F)C(F)(F)F)[C@H]3[C@@H]1CC[C@@H]2O (some centres undefined) 4.69

Identify measured CTG-3D luminescence at 96 h corresponding to CC[C@H](NC(=O)[C@H](C)NC)C(=O)N1C[C@@H](O)C[C@H]1Cc1c(-c2[nH]c3cc(F)ccc3c2C[C@@H]2C[C@H](O)CN2C(=O)[C@H](CC)NC(=O)[C@H](C)NC)[nH]c2cc(F)ccc12 4.39

Identify measured CTG-3D luminescence at 96 h corresponding to CN(Cc1cnc2nc(N)nc(N)c2n1)c1ccc(C(=O)N[C@@H](CCC(=O)O)C(=O)O)cc1 [methotrexate] 4.36

Identify measured CTG-3D luminescence at 96 h corresponding to NC1(C(=O)N[C@@H](CCO)c2ccc(Cl)cc2)CCN(c2nc[nH]c3nccc2-3)CC1 4.44

----------
Tested on: HCI-015 (organoid from a triple-negative breast cancer xenograft)
Assay: CTG-3D luminescence at 96 h relative to day-0 seeding control (ratio to day 0); higher = more growth / less cytotoxicity; PDxO 3D drug screen, 96 h, CTG-3D normalised to day-0 seeding control.
Conditions: 0.1 µM; days in culture: 191
# CTG-3D luminescence at 96 h listing for each entry below
Could you keep your reply to the number by itself?

CC[C@H](NC(=O)[C@H](C)NC)C(=O)N1C[C@@H](O)C[C@H]1Cc1c(-c2[nH]c3cc(F)ccc3c2C[C@@H]2C[C@H](O)CN2C(=O)[C@H](CC)NC(=O)[C@H](C)NC)[nH]c2cc(F)ccc12
0.126
CC(=O)O[C@H]1C(=O)[C@@]2(C)[C@H]([C@H](OC(=O)c3ccccc3)[C@]3(O)C[C@H](OC(=O)[C@H](O)[C@@H](NC(=O)c4ccccc4)c4ccccc4)C(C)=C1C3(C)C)[C@]1(OC(C)=O)CO[C@@H]1C[C@@H]2O
0.626
Cc1nc(-c2cn3c(n2)-c2ccc(-c4cnn(C(C)(C)C(N)=O)c4)cc2OCC3)n(C(C)C)n1
0.905

Find CTG-3D luminescence at 96 h for C=CCn1c(=O)c2cnc(Nc3ccc(N4CCN(C)CC4)cc3)nc2n1-c1cccc(C(C)(C)O)n1 on HCI-015 and write it down. 0.981
